Value source: patent US9174982B2

Measurement record for GST-Bcl-2 (Homo sapiens (Human), UniProt P10415); quantity recorded: pKi.
pKi: −log10 of the molar value.

>  <smiles.code>
C[C@]1(O)CC[C@@H](COc2ncc(S(=O)(=O)NC(=O)c3ccc(N4CCN(CC5=C(c6ccc(Cl)cc6)CC6(CC5)CC6)CC4)cc3Oc3cnc4[nH]ccc4c3)cc2Cl)CC1

>  <target.or.system>
GST-Bcl-2 (Homo sapiens (Human), UniProt P10415)
Sequence (P10415 whole entry): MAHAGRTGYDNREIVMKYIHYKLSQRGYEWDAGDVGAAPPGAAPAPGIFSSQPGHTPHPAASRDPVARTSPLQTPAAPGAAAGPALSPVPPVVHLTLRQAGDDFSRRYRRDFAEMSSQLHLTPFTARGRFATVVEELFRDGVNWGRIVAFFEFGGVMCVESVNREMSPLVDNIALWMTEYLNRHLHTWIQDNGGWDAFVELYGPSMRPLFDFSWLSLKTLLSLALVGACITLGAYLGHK

>  <pKi>
> 11.00

$$$$
>  <smiles.code>
CC[C@]1(O)CC[C@H](CNc2ccc(S(=O)(=O)NC(=O)c3ccc(N4CCN(CC5=C(c6ccc(Cl)cc6)CC(C)(C)CC5)CC4)cc3Oc3cnc4[nH]ccc4c3)cc2[N+](=O)[O-])CC1

>  <target.or.system>
GST-Bcl-2 (Homo sapiens (Human), UniProt P10415)

>  <pKi>
> 11.00

$$$$
>  <smiles.code>
CC1(C)CCC(CN2CCN(c3ccc(C(=O)NS(=O)(=O)c4cnc(OC[C@]5(F)CC[C@@H](O)CC5)c(Cl)c4)c(Oc4cnc5[nH]ccc5c4)c3)CC2)=C(c2ccc(Cl)cc2)C1

>  <target.or.system>
GST-Bcl-2 (Homo sapiens (Human), UniProt P10415)

>  <pKi>
> 11.00

$$$$

Req: Name the recorded pKi of the molecule listed here: CC1(C)CCC(CN2CCN(c3ccc(C(=O)NS(=O)(=O)c4cnc(NC[C@H]5CC[C@](C)(O)CC5)c([N+](=O)[O-])c4)c(Oc4cnc5[nH]ccc5c4)c3)CC2)=C(c2ccc(Cl)cc2)C1
Resp: > 12.00

---

Reported pKi values for the following compounds.
Molecular target: GST-Bcl-2 (Homo sapiens (Human), UniProt P10415)
Experiment: Time Resolved-Fluorescence Resonance Energy Transfer (TR-FRET) Bcl-2 binding assay
Details: GST-Bcl-2 1 nM, F-Bak peptide probe 100 nM, Tb-anti-GST 1 nM; 3 hours at room temperature; < means below limit of detection
Here pKi is given on a logarithmic scale as minus log10 of the concentration in mol/L.

>  <compound>
CC1(C)CCC(CN2CCN(c3ccc(C(=O)NS(=O)(=O)c4ccc(OCC5COCCN5C5CCOCC5)c([N+](=O)[O-])c4)c(Oc4cnc5[nH]ccc5c4)c3)CC2)=C(c2ccc(Cl)cc2)C1 (centres unmarked)

>  <pKi>
10.80

$$$$

Continue with the compound presented below.
Req: Name the recorded pKi of the compound listed here: CC1(C)CCC(CN2CCN(c3ccc(C(=O)NS(=O)(=O)c4ccc(OC[C@H]5CC[C@@](C)(O)CC5)c(Cl)c4)c(Oc4cnc5[nH]ccc5c4)c3)CC2)=C(c2ccc(Cl)cc2)C1
Resp: 10.80

---

pKi: −log10 of the molar value.
Measurement record for GST-Bcl-2 (Homo sapiens (Human), UniProt P10415); quantity recorded: pKi.

The cases that follow already have their pKi on record.
>  <compound>
COC1(C)CCC(c2ccc(Cl)cc2)=C(CN2CCN(c3ccc(C(=O)NS(=O)(=O)c4ccc(NC[C@H]5CC[C@@](C)(O)CC5)c([N+](=O)[O-])c4)c(Oc4cnc5[nH]ccc5c4)c3)CC2)C1 (stereo partly drawn) [Example 377]

>  <pKi>
> 12.00

$$$$
>  <compound>
CC1(C)CCC(CN2CCN(c3ccc(C(=O)NS(=O)(=O)c4cnc(NC[C@H]5CC[C@@](C)(O)CC5)c([N+](=O)[O-])c4)c(Oc4cnc5[nH]ccc5c4)c3)CC2)=C(c2ccc(Cl)cc2)C1 [Example 371]

>  <pKi>
> 12.00

$$$$

Req: Name the recorded pKi of the compound listed here: CCC1(O)CCC(CNc2ccc(S(=O)(=O)NC(=O)c3ccc(N4CCN(CC5=C(c6ccc(Cl)cc6)CC(C)(C)CC5)CC4)cc3Oc3cnc4[nH]ccc4c3)cc2[N+](=O)[O-])CC1 (stereo not drawn) [Example 358]
Resp: > 11.00
